Tested on: SK-OV-3 ovarian
Test: NCI-60 one-dose screen, 48 h
Conditions: 10 µM unless noted
Compounds without any hit were thinned out: in the full panel of roughly 83,000, 20% have a hit. The source made the active and inactive calls. Rule for the calls: active = growth percent below 10; inactive = the rest.
Outcome codes: active, inactive

{"compound": "COc1ccc(/C=C/C(=O)/C=C/c2cc3ccc(Cl)cc3[nH]c2=O)cc1", "category.label": "inactive"}
{"compound": "Nc1ccccc1C#C/C=C\\C#Cc1cccc(O)c1", "category.label": "inactive"}
{"compound": "O=C(Nc1ccc(I)cc1)c1cc([N+](=O)[O-])ccc1O", "category.label": "inactive"}
{"compound": "CC[C@]1(O)C[C@@H]2CN(Cc3c([nH]c4ccccc34)[C@@](C(=O)OC)(c3cc4c(cc3OC)N(C)[C@H]3[C@@](O)(C(=O)OC)[C@H](OC(C)=O)[C@]5(CC)[C@@H]6C[C@@H]6CN6CC[C@]43[C@@H]65)C2)C1", "category.label": "inactive"}
{"compound": "O=C(CCl)NCCNc1nccc(Nc2ccc(S(=O)(=O)Nc3ccccn3)cc2)n1", "category.label": "inactive"}
{"compound": "COc1ccc(/C=N/NC(=O)Cn2c(Cc3cccc4ccccc34)nc3ccccc32)cc1", "category.label": "inactive"}
{"compound": "CCN1C(=O)N(CC)C2C1NN=c1s/c(=C\\c3cccc(F)c3)c(=O)n12 (configuration not stated)", "category.label": "inactive"}
{"compound": "COc1ccc2c(c1)C(=O)/C(=C/c1ccc(O)cc1)O2", "category.label": "inactive"}
{"compound": "C=CCOc1cccc(/C=C/C(=O)c2sc(Nc3cccnc3)nc2C)c1", "category.label": "inactive"}
{"compound": "C=CCOc1ccc(/C(O)=C2\\C(=O)C(=O)N(c3nccs3)C2c2ccccc2F)cc1 (configuration not stated)", "category.label": "inactive"}
{"compound": "COC(=O)CCCCCN=Cc1c(O)c(O)c(C(C)C)c2cc(C)c(-c3c(C)cc4c(C(C)C)c(O)c(O)c(C=NCCCCCC(=O)OC)c4c3O)c(O)c12", "category.label": "inactive"}
{"compound": "CCC(c1ccc(OC)cc1)C(CC)c1ccc(OCC[N+](C)(C)C)cc1 (configuration not stated)", "category.label": "inactive"}
{"compound": "CN(C)c1ccc(-c2ccc(-c3ccc(C(=N)N)cn3)o2)cc1", "category.label": "active"}
{"compound": "CN1C(=O)[C@H]2c3c1cccc3[C@@]13NC(=O)O[C@H]1[C@H](CCC3(C)C)C2(C)C", "category.label": "inactive"}
{"compound": "O=S(=O)(NCCCNc1nccc(-c2c(-c3ccccc3)nc3sccn23)n1)c1ccc(F)cc1", "category.label": "inactive"}
{"compound": "O=C1CCC/C=C\\C[C@H]2C=CC(=O)/C2=C/C[C@H](C/C=C\\CC(F)(F)F)O1", "category.label": "active"}
{"compound": "N#Cc1ncc(-c2ccc(F)c(F)c2F)c(NC2CCCCCC2)n1", "category.label": "inactive"}
{"compound": "COc1cc(Br)c(OC)cc1Br", "category.label": "inactive"}
{"compound": "COc1ccc(-n2cnc3c(sc4ncc(Cl)cc43)c2=O)cc1", "category.label": "inactive"}
{"compound": "O=S(=O)(NCCCNc1cc(-c2cn(-c3ccccc3)nc2-c2cccc(O)c2)ccn1)c1cccc(F)c1", "category.label": "inactive"}
{"compound": "ClC1=C(Cl)C(Cl)=C(Cl)C1=Cc1ccc(Cl)cc1Cl", "category.label": "inactive"}
{"compound": "O=S(=O)(NCCNc1cc(-c2cn(-c3ccccc3)nc2-c2ccccc2)ccn1)c1ccc(F)cc1", "category.label": "inactive"}
{"compound": "COc1ccc(-c2nc3sccn3c2-c2ccnc(NCCCNS(=O)(=O)c3ccc(C)cc3)n2)cc1", "category.label": "inactive"}
{"compound": "CCCCNc1nnc(-c2cc(-c3cc4ccccc4o3)nn2-c2ccccc2)o1", "category.label": "inactive"}
{"compound": "O=C(Nc1ccc(Cl)cc1)c1cc(-c2ccc(F)cc2)c2sc(=O)[nH]c2n1", "category.label": "active"}
{"compound": "O=C(COc1ccccc1)N1N=C(c2ccc(Cl)cc2)CC1c1c[nH]c2ccccc12 (configuration not stated)", "category.label": "inactive"}
{"compound": "O=[N+]([O-])c1cccc(-c2cc(-c3cc(Br)ccc3O)[nH]n2)c1", "category.label": "inactive"}
{"compound": "Cn1cc(C=O)c2ccccc21", "category.label": "inactive"}
{"compound": "C/C(=C\\c1csc(C)n1)[C@@H]1C[C@@H]2O[C@]2(C)CCC[C@H](C)[C@H](O)[C@@H](C)C(=O)C(C)(C)[C@@H](O)CC(=O)N1", "category.label": "active"}
{"compound": "O=S(=O)(NCCCNc1nccc(-c2c(-c3ccc(F)c(O)c3)nc3sccn23)n1)c1ccc(Cl)cc1", "category.label": "inactive"}
{"compound": "Nc1c(C(=O)Nc2cccc(C(F)(F)F)c2)sc2nc3c(cc12)CCCCCC3", "category.label": "active"}
{"compound": "O=S(=O)(NCCNc1nccc(-c2c(-c3ccccc3)nc3sccn23)n1)c1ccc(O)cc1", "category.label": "inactive"}
